// provenance: PubChem BioAssay AID430

Please provide measured cytotoxicity for the entries that follow.
Test: cytotoxicity in HPDE-C7 cells, cell-based, fluorescence, HTS (AID 430);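 further: cells exposed to compound for 48 hours before viability readout; 0% = vehicle and 100% = reference cytotoxic drug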
Conditions: HPDE-C7 pancreatic duct cells viability, at 10 µM, hits give high values
In all, about 63,000 compounds went through this assay and about 1,100 (1.7%) were called active. Only a selection was taken, and actives are over-represented in it overall. Measured potencies and affinities stand elsewhere.
Kindly provide the numeric value in % only, without the unit symbol.

// returns reported cytotoxicity for input CCn1ncc(C2=NOC(C(=O)Nc3cccnc3)C2)c1C (stereo unspecified)
-4.8

Entry O=c1[nH]cnc2scc(-c3ccc(F)cc3)c12 has what cytotoxicity?
-4.9

So what's the measured cytotoxicity for this one? Cc1ccc(/C=c2/sc3nnc(-c4ccccc4Cl)n3c2=O)o1
69.7

Fill in the blank: the reported cytotoxicity of CC(C)CC(OC(=O)c1ccco1)C(=O)NC1CCCCC1 (stereo unspecified) is ____.
-5.1

What does the record list as cytotoxicity for COc1ccc(S(=O)(=O)Nc2nc(C(F)(F)F)cs2)cc1 ?
-2.3

Please report the recorded cytotoxicity for CCOc1ccc(N2C(=O)CC(SC(=NC)Nc3cccc(F)c3)C2=O)cc1 (stereo unspecified) .
-18.7

Can you look up the measured cytotoxicity of CN(CCc1ccccn1)Cc1ccc(Cl)cc1Cl for me?
3.3

Any idea what its cytotoxicity is? The molecule is Cc1cc(C)cc(N2CCCn3c2nc2c3c(=O)n(CCN3CCOCC3)c(=O)n2C)c1
-6.7

// query cytotoxicity value for entry CCn1ncc(C2=NOC(C(=O)NCc3ccc(OC)cc3)C2)c1C (stereo unspecified)
21.2

// cytotoxicity lookup, key: Cc1ccc(/C=c2\sc3nc(-c4ccccc4Br)nn3c2=O)o1
2.6

Please give the measured cytotoxicity for this molecule: CCn1ncc(C2=NOC(C(=O)NCc3ccc(Cl)cc3)C2)c1C (stereo unspecified)
65.1

----------
Hi there, I'd appreciate the recorded cytotoxicity for every entry that follows.
Assay: cytotoxicity in HPDE-C7 cells, cell-based, fluorescence, HTS (AID 430);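 further: cells exposed to compound for 48 hours before viability readout; 0% = vehicle and 100% = reference cytotoxic drug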
Settings: HPDE-C7 pancreatic duct cells viability, at 10 µM, hits give high values
Screen size: about 63,000 compounds; about 1,100 (1.7%) were called active. Shown is part of a subset that was picked to be rich in actives. Potency and affinity values are given separately.
Numeric answer only, unit % assumed.

Quick check: cytotoxicity of CC(C)NC(=O)CN(C)S(=O)(=O)c1ccc(F)cc1 ?
1.5

Reported cytotoxicity, compound Cc1nc(-c2ccccc2)cc(N2CCCC2)n1 : ____
-14.7

What value of cytotoxicity has been recorded for this entry: c1ccc2c(Cn3ccnc3)c[nH]c2c1
-14

Which measured cytotoxicity value corresponds to O=C(CC(SCCO)c1ccc2c(c1)OCO2)c1ccco1 (centres undefined) ?
1.4

# query: cytotoxicity of entry O=C(CC(SCc1ccco1)c1ccc(O)cc1)c1cccs1 (centres undefined)
54.4

I'd like to know its cytotoxicity. The compound in question is O=C(O)c1ccc(CNC(=O)c2ccc(Br)o2)cc1
0.5

Entry CC(NC(=O)c1ccc(CS(=O)(=O)Cc2ccccc2F)o1)c1ccc2c(c1)OCCO2 (centres undefined) : reported cytotoxicity = ?
-10.6

Entry Cc1ccc(S(=O)(=O)Cn2nnnc2C(CC(C)C)N2CCN(C(=O)c3ccco3)CC2)cc1 (centres undefined) : reported cytotoxicity = ?
4.4

I have this compound here, O=S(=O)(Nc1nc2ccccc2nc1NCCO)c1cccc(Cl)c1 , and I need its recorded cytotoxicity.
12.5

Data request, read-out cytotoxicity, for CC(Sc1ccc2ccccc2n1)C(=O)O (centres undefined)
4.7

For the compound shown here, Cn1c(Cn2nnc3ccccc32)nnc1SCC(=O)N1c2ccccc2CCc2ccccc21 , give the reported cytotoxicity.
-18

# input compound: CC(NC(=O)c1cccs1)c1ccc2c(c1)OCO2 (centres undefined) ; wanted: its cytotoxicity
-2.3

Would you kindly share the measured cytotoxicity for COC(=O)C1(C)NC(c2cccs2)C2C(=O)N(c3ccc(F)cc3)C(=O)C21 (centres undefined) ?
3.3

Query (compound): O=C(CSc1nnc(Cc2cc(=O)[nH]c(=O)[nH]2)n1-c1ccccc1)N1CCCC1 ; field requested: cytotoxicity
-9.2

Recorded cytotoxicity of COc1cccc(OCc2nnc(SCC(=O)OC3CCCCC3)n2C)c1 , please.
-7.5

GET /values?readout=cytotoxicity&item= COc1ccc(C2C(C(C)=O)=C(C)N=c3s/c(=C/c4ccc5c(c4)OCO5)c(=O)n32)cc1 (centres undefined)
-4.1

cytotoxicity lookup needed for COc1cccc(C(=O)/C=C/Nc2cc(C)ccc2O)c1 , thanks.
65.2

Which cytotoxicity is reported for this compound? Nn1c(SCC(=O)NCc2ccccc2)nnc1C1CC1
6.6

What measured cytotoxicity goes with O=C(CSc1nnc(-c2ccc(O)cc2)n1Cc1ccco1)c1cccs1 ?
-1.1

Using the record for Cc1nc(-c2cn[nH]c2)c2cc(C)oc2n1 , report its cytotoxicity.
1.2

Please give the measured cytotoxicity for this compound: CC(C)CCNC(=O)CN(CCN1CCOCC1)C(=O)Cn1nnc(-c2ccc(F)cc2)n1
4.5

Fill blank: measured cytotoxicity of the compound COc1cccc(C(=O)Nc2ccc(C)cc2)c1 is ____.
-1.9

Need cytotoxicity, item CC1CCCN(S(=O)(=O)c2cc(Cl)ccc2Cl)C1 (centres undefined)
-32.2

Please give the measured cytotoxicity for this compound: O=C(CC(SCCO)c1ccc2c(c1)OCO2)c1cccs1 (centres undefined)
54.5
